# Growth Rate per entry
Test system: HEK-293T
Assay: Incucyte cell viability with HEK293T; note: unitless GR value; below 1 slowed growth and below 0 cell loss
Type: toxicity, cell-based
Details: human, 12 h, 10 µM, compound concentration 10 uM, replicate number 1, timepoint 12 hours
Form field (numeric): enter value without unit.

C[C@@H](OC[C@@]1(c2ccccc2)CC[C@]2(CCC(=O)N2)CN1)c1cc(C(F)(F)F)cc(C(F)(F)F)c1    0.83
O=C1[C@H](Cc2ccc(O)cc2)N2C(=O)CCN(C(=O)NCc3ccccc3)[C@H]2CN1Cc1cccc2ccccc12    -0.35
CCN(Cc1ccncc1)C(=O)C(CO)c1ccccc1 (centres undefined) [TROPICAMIDE]    0.97

Recorded Growth Rate for COc1c(Nc2ccc(S(C)(=O)=O)nc2C)ncnc1OC1CCN(C(=O)OC(C)C)CC1 , please?
0.45
